Give protein stability index for every item shown.
# Tested on: Saccharomyces cerevisiae;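 note: PSI is a weighted mean of sequencing reads over stability bins, variants kept only with over 10 reads, mCherry proximal and sfGFP distal, peptide attached via GGGS linker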
# TEST_METHOD_NOTES: protein stability index of tFT-peptide fusion (C-terminal peptide) (PSI (0-1 scale)); higher = more stable (slower turnover)
# CONDITION_LABEL: genetic background: wild type; temperature: 30 C
Format: numeric value only, no unit, no commentary.

Entry `SPPVRLPSASTV` : reported protein stability index = ?
0.681

Entry `TLWENEKNNKHG` : reported protein stability index = ?
0.705

Entry `TDIRMRRLNRDT` : reported protein stability index = ?
0.684

Entry `EVTVSGEEQRAG` : reported protein stability index = ?
0.688

Entry `CFTPYNPSPLLS` : reported protein stability index = ?
0.715

Entry `GSCGCLSVVSGR` : reported protein stability index = ?
0.713

Entry `FFSLVHVLFYGF` : reported protein stability index = ?
0.54

Entry `HNSTKTQSLRGT` : reported protein stability index = ?
0.719

Entry `GRVAMAVSGGVG` : reported protein stability index = ?
0.638

Entry `DLGRRRVGPKGA` : reported protein stability index = ?
0.717

Entry `SPLPPPPAPFLP` : reported protein stability index = ?
0.676

Entry `SRPEPNGLRKLV` : reported protein stability index = ?
0.293

Entry `LPLQPPPPVCLP` : reported protein stability index = ?
0.376

Entry `KKNHTQIKEVPR` : reported protein stability index = ?
0.694

Entry `IFWGFSFRGWGC` : reported protein stability index = ?
0.683

Entry `GFSAGVSHSGAG` : reported protein stability index = ?
0.661

Entry `LLTAARAQLFAV` : reported protein stability index = ?
0.503

Entry `FCSDRPWGPCRR` : reported protein stability index = ?
0.579

Entry `LVCSRFLFAFHC` : reported protein stability index = ?
0.145

Entry `RVGGGRDVRGGG` : reported protein stability index = ?
0.723

Entry `KKNAFIYKRRPR` : reported protein stability index = ?
0.714

The reported numbers originate from the supplement of paper PMC10724198.
